Molecular target: T1, human Fc Receptor-Like 5 (FcRL5), full length, expressed on cells (human, UniProt Q96RD9 16-977)
T1 construct: also called CD307e; IRTA2
T1 sequence: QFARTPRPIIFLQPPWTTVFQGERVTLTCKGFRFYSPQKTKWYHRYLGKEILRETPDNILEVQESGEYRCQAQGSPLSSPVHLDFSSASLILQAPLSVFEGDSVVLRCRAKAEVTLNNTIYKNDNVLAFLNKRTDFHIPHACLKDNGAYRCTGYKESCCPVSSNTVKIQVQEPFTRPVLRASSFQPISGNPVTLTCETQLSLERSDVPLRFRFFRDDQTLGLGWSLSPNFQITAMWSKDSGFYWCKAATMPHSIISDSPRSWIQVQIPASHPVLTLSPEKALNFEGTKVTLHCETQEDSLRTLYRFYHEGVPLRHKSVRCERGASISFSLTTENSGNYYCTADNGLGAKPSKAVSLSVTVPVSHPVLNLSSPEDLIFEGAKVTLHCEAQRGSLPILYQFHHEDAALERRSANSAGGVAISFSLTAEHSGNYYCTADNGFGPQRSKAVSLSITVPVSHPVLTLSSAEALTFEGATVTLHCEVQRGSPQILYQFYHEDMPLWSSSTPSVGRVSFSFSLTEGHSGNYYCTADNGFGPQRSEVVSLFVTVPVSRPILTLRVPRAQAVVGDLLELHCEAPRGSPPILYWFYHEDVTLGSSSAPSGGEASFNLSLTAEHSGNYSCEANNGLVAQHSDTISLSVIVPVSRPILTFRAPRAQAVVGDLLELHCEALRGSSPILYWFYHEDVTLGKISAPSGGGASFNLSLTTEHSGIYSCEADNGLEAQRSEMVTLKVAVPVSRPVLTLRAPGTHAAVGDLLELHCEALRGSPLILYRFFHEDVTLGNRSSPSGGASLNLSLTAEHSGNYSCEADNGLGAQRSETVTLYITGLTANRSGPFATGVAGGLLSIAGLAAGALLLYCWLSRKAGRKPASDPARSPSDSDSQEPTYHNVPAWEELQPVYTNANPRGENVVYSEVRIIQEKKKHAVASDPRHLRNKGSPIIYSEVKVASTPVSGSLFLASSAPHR
Assay: scFv phage: ELISA on His-tag FcRL5, flow cytometry on FcRL5-overexpressing 3T3 and Raji cells

BINDER	binding result
ET200-016 scFv (scFv, VL-linker-VH; screened as scFv phage clone) scFv: SSELTQDPAVSVALGQTVKITCQGDSLTDYHATWYQQKPGQAPVAVIYATNNRPTGIPDRFSGSSSGNTASLTITGAQAEDEADYYCNSRDSGTDEVLFGGGTKLTVLGSRGGGGSGGGGSGGGGSLEMAEVQLVETGGGLVKPGGSLRLSCAASGFTFSSYSMNWVRQAPGKGLEWVSSISSSSSYIYYADSVKGRFTISRDNAKNSLYLQMNSLRAEDTAVYYCARGQGYDYWGQGTLVTVSS	binds
ET200-020 scFv (scFv, VL-linker-VH; screened as scFv phage clone) scFv: QSVVTQPPSVSAAPGQKVTISCSGSTSNIGNNDVSWYQQLPGTAPKLLIYDNNKRPSGIPDRFSGSKSGTSATLGITGLQTGDEADYYCGTWDSSVSASWVFGRGTKLTVLGSRGGGGSGGGGSGGGGSLEMAQVQLVQSGAEVKKPGASVKVSCKASGYTFTSYGISWVRQAPGQGLEWMGWISAYNGNTNYPQKLQGRVTMTTDPSTSTAYMELRSLRSDDTAVYYCARSMTSFDYWGQGTLVTVSS	binds
